test system: HEK293T (ERα); conditions: Bioassay ERα; cytotoxicity; dosing range all; log-logistic model fit
Reported logIC10 values for a set of compounds
Please respond with just the number, no unit label.

Reference set, count: 2
Oc1ccc(C2(c3ccc(O)cc3)CCCCC2)cc1 [BPZ, 1,1'-Bis(4-hydroxyphenyl)cyclohexane]    -5.18
CC(c1ccc(O)cc1)c1ccc(O)cc1 [BPE, 4,4′-Ethylidenbisphenol]    -4.23

Moving on to the next compound.
// lookup logIC10 for Cc1ccc(S(=O)(=O)NC(=O)Nc2cccc(OS(=O)(=O)c3ccc(C)cc3)c2)cc1 [Pergafast]
-4.96

###

target: Estrogen Receptor ERα (Homo sapiens, UniProt P03372); test: cell-based; conditions: This Study; relative estrogenic potency vs BPA
Sequence (P03372 311-547 limits assumed): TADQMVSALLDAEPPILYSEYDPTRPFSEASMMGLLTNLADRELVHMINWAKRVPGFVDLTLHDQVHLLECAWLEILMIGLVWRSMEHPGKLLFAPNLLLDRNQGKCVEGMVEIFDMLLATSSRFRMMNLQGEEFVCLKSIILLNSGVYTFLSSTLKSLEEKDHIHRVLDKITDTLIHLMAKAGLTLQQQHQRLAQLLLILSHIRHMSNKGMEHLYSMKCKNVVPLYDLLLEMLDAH
Readings of REPBPA for the listed compounds
Please reply with the number alone, leaving off any unit.

Worked examples follow.
O=C(OCc1ccccc1)c1ccc(O)cc1 [BzPB, Benzyl 4-hydroxybenzoate]    1.23E-01
CC1(C)[C@H](O)C(C)(C)[C@H]1O [t-TMCD]    1.22E-04
CC(C)c1cc(C(C)(C)c2ccc(O)c(C(C)C)c2)ccc1O [BPG]    4.11E-01

// switching to the query compound
Entry Oc1ccc(Cc2ccc(O)cc2)cc1 [BPF, Bis(4-hydroxyphenyl)methane] has what REPBPA?
3.72E-01

###

System: HEK293H, HEK293T, H4IIe, MCF7 and SH-SY5Y cells
Conditions: median cytotoxicity of all cell lines
Description: Cell culture conditions and bioassay protocols including response detection are provided in Text S2.1–2.4 and Table S3. − Cell viability was determined from cell confluency using an IncuCyte S3 Live-Cell Analysis System (Sartorius AG, Essen, Germany) before and after exposure, except for SH-SY5Y cells (live–dead staining with Nuclear Green LcS1 and propidium iodide, Abcam, UK). […] This method has been described previously 13. Cell viability of SH-SY5Y cells was measured […]
// reported IC10,Median (M) for each item listed

Some entries whose results are on file:
COC(=O)C(c1ccc(O)cc1)c1ccc(O)cc1 [Bz, Methyl bis(4-hydroxyphenyl)acetate]    3.73 × 10^–4 M
Oc1ccc(C2(c3ccc(O)cc3)CCCCC2)cc1 [BPZ, 1,1'-Bis(4-hydroxyphenyl)cyclohexane]    5.28 × 10^–5 M
Cc1ccc(S(=O)(=O)NC(=O)Nc2cccc(OS(=O)(=O)c3ccc(C)cc3)c2)cc1    1.91 × 10^–5 M
CC(C)(c1ccc(OCC2CO2)cc1)c1ccc(OCC2CO2)cc1 (centres unmarked)    3.85 × 10^–5 M
Oc1ccc(Cc2ccc(O)cc2)cc1 [BPF, Bis(4-hydroxyphenyl)methane]    4.09 × 10^–4 M

Quick one: IC10,Median (M) of CC(c1ccccc1)(c1ccc(O)cc1)c1ccc(O)cc1 ?
3.31 × 10^–5 M

# repeat for CC(C)(c1cc(Cl)c(O)c(Cl)c1)c1cc(Cl)c(O)c(Cl)c1
7.84 × 10^–5 M

Input Cc1cc(Cc2cc(C)c(O)c(C)c2)cc(C)c1O [TMBPF, Bis(3,5-dimethyl-4-hydroxyphenyl)methane]
1.27 × 10^–5 M

Moving on to the next molecule: CC(c1ccc(O)cc1)c1ccc(O)cc1
7.91 × 10^–5 M

Please do the same for CC(C)(c1ccc(O)c(-c2ccccc2)c1)c1ccc(O)c(-c2ccccc2)c1 [BPPH, 2,2-Bis(2-hydroxy-5-biphenylyl)propane] as well.
8.02 × 10^–6 M

Then what about the molecule O=C(OCc1ccccc1)c1ccc(O)cc1 [BzPB, Benzyl 4-hydroxybenzoate] ?
1.32 × 10^–4 M

Now the same for CC(C)c1cc(C(C)(C)c2ccc(O)c(C(C)C)c2)ccc1O
7.84 × 10^–6 M

Note, next up: Oc1ccc(Sc2ccc(O)cc2)cc1
9.51 × 10^–5 M

###

In this section we review reported IC10, linear transformed values for a set of compounds.
test system: HEK293H (PPARγ); details: PPARγ bioassay cytotoxicity; dosing range all
No unit in the answer, only the number.

// worked examples, IC10, linear transformed included
O=C(OCc1ccccc1)c1ccc(O)cc1 [BzPB, Benzyl 4-hydroxybenzoate]    3.90E-06
O=S(=O)(c1ccc(O)cc1)c1ccc(O)cc1    3.12E-05
CC(c1ccccc1)(c1ccc(O)cc1)c1ccc(O)cc1    3.60E-06
Oc1ccc(C(c2ccc(O)cc2)(C(F)(F)F)C(F)(F)F)cc1    4.34E-06
CCC(C)(c1ccc(O)cc1)c1ccc(O)cc1    2.50E-06
CC(C)c1cc(C(C)(C)c2ccc(O)c(C(C)C)c2)ccc1O    3.91E-06
Oc1ccc(Cc2ccc(O)cc2)cc1 [BPF, Bis(4-hydroxyphenyl)methane]    6.05E-06
CC(c1ccc(O)cc1)c1ccc(O)cc1    5.10E-06

What value of IC10, linear transformed on HEK293H (PPARγ) does COC(=O)C(c1ccc(O)cc1)c1ccc(O)cc1 [Bz, Methyl bis(4-hydroxyphenyl)acetate] have?
1.09E-04

Entry Cc1ccc(S(=O)(=O)NC(=O)Nc2cccc(OS(=O)(=O)c3ccc(C)cc3)c2)cc1 please
1.21E-06

###

system: Mitochondrial Membrane Potential; experiment: cells; details: input of the ToxPi score, values up to 1.00
Items are presented alongside their recorded log(1/EC10) MMP.
Returns: the value as a bare number; no unit string appended.

// below: answered compounds
CC(C)(c1ccc(O)c(-c2ccccc2)c1)c1ccc(O)c(-c2ccccc2)c1 [BPPH, 2,2-Bis(2-hydroxy-5-biphenylyl)propane]    1.00
COC(=O)C(c1ccc(O)cc1)c1ccc(O)cc1 [Bz, Methyl bis(4-hydroxyphenyl)acetate]    0.84
Cc1ccc(S(=O)(=O)NC(=O)Nc2cccc(OS(=O)(=O)c3ccc(C)cc3)c2)cc1    0.92

Now for the compound whose log(1/EC10) MMP we want.
Fill in the blank: the reported log(1/EC10) MMP of CC(C)(c1ccc(O)cc1)c1ccc(O)cc1 [BPA, 4,4'-(Propane-2,2-diyl)diphenol, reference compound] is ____.
0.71

###

Form field: EC10, PPARγ (one value per entry).
target: Peroxisome proliferator-activated receptor γ (Homo sapiens, UniProt P37231); assay: cell-based; conditions: effect
Sequence (P37231 238-505 limits assumed): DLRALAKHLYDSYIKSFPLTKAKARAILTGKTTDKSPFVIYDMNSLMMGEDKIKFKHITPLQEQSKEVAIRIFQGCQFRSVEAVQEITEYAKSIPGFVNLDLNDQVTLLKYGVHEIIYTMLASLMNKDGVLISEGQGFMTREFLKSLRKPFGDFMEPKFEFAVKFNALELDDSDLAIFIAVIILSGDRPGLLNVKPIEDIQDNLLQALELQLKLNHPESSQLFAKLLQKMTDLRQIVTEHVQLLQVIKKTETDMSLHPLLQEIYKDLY
Reply with just the number (in nM).

O=C(OCc1ccccc1)c1ccc(O)cc1 [BzPB, Benzyl 4-hydroxybenzoate]    2040
Cc1ccc(S(=O)(=O)NC(=O)Nc2cccc(OS(=O)(=O)c3ccc(C)cc3)c2)cc1    671
CC(C)(c1ccc(O)c(-c2ccccc2)c1)c1ccc(O)c(-c2ccccc2)c1 [BPPH, 2,2-Bis(2-hydroxy-5-biphenylyl)propane]    555
O=S(=O)(c1ccc(O)cc1)c1ccc(OCc2ccccc2)cc1 [BPS-MPE, 4-[4-(benzyloxy)benzenesulfonyl]phenol]    235
CC(C)c1cc(C(C)(C)c2ccc(O)c(C(C)C)c2)ccc1O    117

Fill in: EC10, PPARγ of Cc1ccc(S(=O)(=O)NC(=O)Nc2ccc(Cc3ccc(NC(=O)NS(=O)(=O)c4ccc(C)cc4)cc3)cc2)cc1 is ___
256

Can you check Cc1cc(Cc2cc(C)c(O)c(C)c2)cc(C)c1O [TMBPF, Bis(3,5-dimethyl-4-hydroxyphenyl)methane] next?
329

###

tested on: SH-SY5Y cells; settings: NOI bioassay cytotoxicity; dosing range all; linear model
measurement.type: IC10, linear

Please review the entries below; each comes with its answer.
CC(C)(c1ccc(OCC2CO2)cc1)c1ccc(OCC2CO2)cc1 (centres unmarked) [BADGE, Bisphenol A diglycidyl ether]    5.39E-05
Oc1ccc(C2(c3ccc(O)cc3)CCCCC2)cc1 [BPZ, 1,1'-Bis(4-hydroxyphenyl)cyclohexane]    7.12E-05
Oc1ccc(Cc2ccc(O)cc2)cc1 [BPF, Bis(4-hydroxyphenyl)methane]    5.56E-04
CC(C)(c1ccc(O)cc1)c1ccc(O)cc1 [BPA, 4,4'-(Propane-2,2-diyl)diphenol, reference compound]    no cytotoxicity
Cc1ccc(S(=O)(=O)NC(=O)Nc2ccc(Cc3ccc(NC(=O)NS(=O)(=O)c4ccc(C)cc4)cc3)cc2)cc1 [BTUM]    no cytotoxicity

Which IC10, linear is reported with SH-SY5Y cells for this entry: CC1(C)C(O)C(C)(C)C1O (racemic) [r-TMCD] ?
no cytotoxicity

Also O=S(=O)(c1ccc(O)cc1)c1ccc(O)cc1 [BPS, 4,4'-Sulfonyldiphenol] , if possible.
1.85E-04

Try this compound too: CC(c1ccc(O)cc1)c1ccc(O)cc1 [BPE, 4,4′-Ethylidenbisphenol]
5.29E-04

###

experiment: Abiotic CYP (aCYP) oxidation, remaining parent compound (Cparent-Ratio); conditions: Table S9, loss of parent after aCYP oxidation
measurement.type: % Loss (%)
Your answer is read as %, so omit the unit and give the number.

Worked examples follow.
CC1(C)C(O)C(C)(C)C1O (racemic)    1.72
Cc1ccc(S(=O)(=O)NC(=O)Nc2ccc(Cc3ccc(NC(=O)NS(=O)(=O)c4ccc(C)cc4)cc3)cc2)cc1    70
Oc1ccc(C2(c3ccc(O)cc3)CCCCC2)cc1 [BPZ, 1,1'-Bis(4-hydroxyphenyl)cyclohexane]    12
CC(C)c1cc(C(C)(C)c2ccc(O)c(C(C)C)c2)ccc1O    15
O=S(=O)(c1ccc(O)cc1)c1ccccc1O    -4.66

What value of % Loss has been reported for the following compound? CC(C)(c1ccc(O)c(-c2ccccc2)c1)c1ccc(O)c(-c2ccccc2)c1 [BPPH, 2,2-Bis(2-hydroxy-5-biphenylyl)propane]
22

Note, next up: C=CCOc1ccc(S(=O)(=O)c2ccc(O)cc2)cc1 [BPS-MAE, 4-[[4-(Allyloxy)phenyl]sulfonyl]phenol]
1.47

For O=S(=O)(c1ccc(O)cc1)c1ccc(OCc2ccccc2)cc1 [BPS-MPE, 4-[4-(benzyloxy)benzenesulfonyl]phenol] then?
0.295

Also check Oc1ccc(Sc2ccc(O)cc2)cc1
71

What would you report for Cc1ccc(S(=O)(=O)NC(=O)Nc2cccc(OS(=O)(=O)c3ccc(C)cc3)c2)cc1 ?
44

Record: Cc1cc(Cc2cc(C)c(O)c(C)c2)cc(C)c1O [TMBPF, Bis(3,5-dimethyl-4-hydroxyphenyl)methane]
31

Param item: CC(C)(c1ccc(O)cc1)c1ccc(O)cc1 [BPA, 4,4'-(Propane-2,2-diyl)diphenol, reference compound]
15
